tested on: 3D7-strain P. falciparum asexual parasites; test: P. falciparum asexual growth inhibition assay (Pf GIA); type: cell-based, Plasmodium falciparum; details: dose response confirmation; read-out: Pf asexual growth inhibition assays IC50
pIC50: −log10 of the molar value.
Binary classification by pIC50, with 6 as an inclusive lower bound for yes; all other cases are no.

Problem: State whether the measured pIC50 reaches 6, counting equality as reaching it, for Oc1c(C(Nc2nc3ccccc3s2)c2ccccc2)ccc2cccnc12 (stereo not drawn)
Result: no

Problem: State whether the measured pIC50 reaches 6, counting equality as reaching it, for Cc1cccc2nc(-c3ccc(-c4ccc(CN5CC(C)OC(C)C5)cc4)cc3)[nH]c12.O=C(O)C(F)(F)F (stereo not drawn)
Result: yes

Problem: State whether the measured pIC50 reaches 6, counting equality as reaching it, for Cc1cc(=O)c(-c2ccc(Oc3cccc(Cl)c3)cc2)c(C)[nH]1
Result: no

Problem: State whether the measured pIC50 reaches 6, counting equality as reaching it, for Cc1[nH]c(C)c(-c2ccc(Oc3cccc(OC(F)(F)F)c3)cc2)c(=O)c1Cl
Result: yes

Problem: State whether the measured pIC50 reaches 6, counting equality as reaching it, for CNC(=O)c1ccccc1Nc1nc(Nc2ccc(N3CCOCC3)cc2)ncc1Cl.Cl
Result: no

Problem: State whether the measured pIC50 reaches 6, counting equality as reaching it, for CC1CN(Cc2cccc(F)c2)CCN1c1ccc(NC(=O)c2cccs2)cc1.O=C(O)C(F)(F)F (stereo not drawn)
Result: yes

Problem: State whether the measured pIC50 reaches 6, counting equality as reaching it, for CC1CN(Cc2cccc(C#N)c2)CCN1c1ccc(NC(=O)c2cccs2)cc1.O=C(O)C(F)(F)F (stereo not drawn)
Result: yes

Problem: State whether the measured pIC50 reaches 6, counting equality as reaching it, for Cc1[nH]c(C)c(-c2ccc(OCc3cc(C(F)(F)F)cc(C(F)(F)F)c3)nc2)c(=O)c1Cl
Result: yes

Problem: State whether the measured pIC50 reaches 6, counting equality as reaching it, for Br.CC1(C)N=C(N)N=C(N)N1OCCc1cccc2ccccc12
Result: yes

Problem: State whether the measured pIC50 reaches 6, counting equality as reaching it, for CCN(CC)S(=O)(=O)n1ncc2c3c(N)nc(N)nc3ccc21.Cl
Result: yes

Problem: State whether the measured pIC50 reaches 6, counting equality as reaching it, for Cc1nc(NC2=NCN(CCCN3CCOCC3)CN2)nc2c(C)cccc12
Result: no

Problem: State whether the measured pIC50 reaches 6, counting equality as reaching it, for O=C(NCC1CCCCC1)c1cc(=O)c2ccccc2o1
Result: yes

Problem: State whether the measured pIC50 reaches 6, counting equality as reaching it, for COc1ccc2ncc(C#N)c(CCN3CCC(NCc4ccc5c(n4)NC(=O)CS5)CC3)c2n1.Cl
Result: no

Problem: State whether the measured pIC50 reaches 6, counting equality as reaching it, for O=C(c1cc(-c2cccs2)[nH]n1)N1CCN(S(=O)(=O)c2ccc(Cl)cc2)CC1
Result: yes

Problem: State whether the measured pIC50 reaches 6, counting equality as reaching it, for COc1ccc(Oc2ccc(-c3c(C)[nH]c(C)c(Cl)c3=O)cc2)cc1
Result: yes

Problem: State whether the measured pIC50 reaches 6, counting equality as reaching it, for Br.CC1(C)NC(N)=NC(=N)N1OCCCOc1cccc(Cl)c1
Result: yes

Problem: State whether the measured pIC50 reaches 6, counting equality as reaching it, for CCN1CCN(CCNc2c3ccccc3nc3ccccc23)CC1.Cl
Result: yes

Problem: State whether the measured pIC50 reaches 6, counting equality as reaching it, for Br.COc1ccc(CCCON2C(=N)N=C(N)NC2(C)C)cc1
Result: yes

Problem: State whether the measured pIC50 reaches 6, counting equality as reaching it, for OCCc1ccc(Nc2nccc(-c3nnc4ccccn34)n2)cc1
Result: yes

Problem: State whether the measured pIC50 reaches 6, counting equality as reaching it, for Cc1cc(NC(c2ccc(Cl)cc2)c2ccc3cccnc3c2O)no1 (stereo not drawn)
Result: no

Problem: State whether the measured pIC50 reaches 6, counting equality as reaching it, for COc1cccc(CC(=O)N2CCC(n3c(C)nc4ccc(C)cc43)CC2)c1
Result: yes

Problem: State whether the measured pIC50 reaches 6, counting equality as reaching it, for CN1CCN(c2ccc(Nc3ncc(C#N)c(Nc4ccccc4C(N)=O)n3)cc2)CC1.Cl
Result: yes

Problem: State whether the measured pIC50 reaches 6, counting equality as reaching it, for Cc1cc2nc(/N=C(\N)NC(=O)NC3CCCCC3)nc(C)c2cc1C
Result: yes

Problem: State whether the measured pIC50 reaches 6, counting equality as reaching it, for Cc1[nH]c(C)c(-c2ccc(Oc3ccc(OC(F)(F)F)cc3)cc2)c(=O)c1Br
Result: yes

Problem: State whether the measured pIC50 reaches 6, counting equality as reaching it, for COc1ccc(Cn2ncc3c4c(N)nc(N)nc4ccc32)cc1OC
Result: yes
